- Tested on: UACC-62 melanoma
- Procedure Summary: NCI tumour cell line growth inhibition, 48 h
Classify as follows. Reported TGI greater than or equal to 20 µM: Met. Reported TGI below: Not met.

Compound: CCOP(=O)(OCC)C(NC(c1ccccc1)c1ccccc1)c1cccc2ccccc12 (stereo not drawn)
Cat: Not met
//
Compound: CC12CCC(=O)C=C1CCC1C2C(O)CC2(C)C(c3csc(N)n3)CCC12 (stereo not drawn)
Cat: Met
//
Compound: C[C@H]1[C@H](C)CC[C@]2(C(=O)O)CC[C@]3(C)C(=CC[C@@H]4[C@@]5(C)C/C(=C/c6cccnc6)[C@H](O)C(C)(C)[C@@H]5CC[C@]43C)[C@H]12
Cat: Met
//
Compound: CC[C@H]1OC([C@H](O)C/C=C\C#C[Si](C)(C)C)C/C=C\C[C@H]1O[Si](C)(C)C(C)(C)C (stereo partly drawn)
Cat: Met
//
Compound: CC/C=C\C/C=C\C/C=C\CCCCCCCC(=O)OCC
Cat: Met
//
Compound: CC(C)(C)c1ccc(S(=O)(=O)N[C@H]2CC[C@H]3[C@@H]4CCc5cc(OS(=O)(=O)O)ccc5[C@H]4CC[C@]23C)cc1
Cat: Not met
//
Compound: CO/N=C(\C)c1ccc(Nc2cc(-c3ccccc3)nc3c(O)cccc23)cc1
Cat: Met
//
Compound: CCC1C(c2cc(OC)c(OC)c(OC)c2)c2cc3c(cc2OC1N1CCOCC1)OCO3 (stereo not drawn)
Cat: Met

* * *

// reported TGI for each item listed
- Tested on: A549 NSCLC
- Procedure Summary: NCI tumour cell line growth inhibition, 48 h

Smiles Record: C1=C\CCCCN2C[C@H]3CCCC/C=C\CCCCN4CC[C@@H]([C@H](CCCCCC/1)C4)[C@H](C3)C2
Unit Spec: µM
Modifier Sign: =
TGI: 6.95

Smiles Record: O=C(O)c1cc(=O)c2[nH]c3ccccc3c2s1
Unit Spec: µM
Modifier Sign: >
TGI: 100

Smiles Record: O=[N+]([O-])c1cn[n+]([O-])c2ccccc12
Unit Spec: µM
Modifier Sign: =
TGI: 30.1

Smiles Record: O=C(CSC(=S)N1CCOCC1)Nc1nc2c(s1)CCCC2
Unit Spec: µM
Modifier Sign: >
TGI: 100

Smiles Record: N/C(=N/n1c(=S)[nH]c2ccccc2c1=O)Nn1c(=S)[nH]c2ccccc2c1=O
Unit Spec: µM
Modifier Sign: >
TGI: 100

* * *

- System: OVCAR-8 ovarian
- Procedure Summary: NCI tumour cell line growth inhibition, 48 h

Compound: Nc1cc(N)c(N)cc1N
Modifier Sign: =
TGI (µM): 12.3
//
Compound: COc1ccc(CC2NC(=O)/C=C/CC(C(C)C3OC3c3ccccc3)OC(=O)C(CC(C)C)OC(=O)C(C)CNC2=O)cc1Cl (stereo not given)
Modifier Sign: >
TGI (µM): 0.1
//
Compound: COc1cc2c(cc1OC)CC(N=[N+]=[N-])c1cc(OC)c(OC)cc1/C=C\2 (stereo not given)
Modifier Sign: =
TGI (µM): 55.8
//
Compound: COc1ccc(-c2cc(-c3cc(OC)c(OC)c(OC)c3)cc(-c3cc4ccccc4oc3=O)n2)cc1
Modifier Sign: =
TGI (µM): 16.3
//
Compound: COC(=O)c1csc(-c2nc(CCNC(=O)OC(C)(C)C)sc2Br)n1
Modifier Sign: >
TGI (µM): 100
//
Compound: COC(=O)c1cc(C#Cc2cc(OC)ccc2OC)ccc1OC
Modifier Sign: >
TGI (µM): 100
//
Compound: COc1ccc(-c2cn(-c3ccccc3)c(-c3ccccc3)n2)cc1OC
Modifier Sign: =
TGI (µM): 10.8
//
Compound: O=C(CSCC(=O)N/N=C\c1ccc(-c2ccccc2)cc1)N/N=C\c1ccc(-c2ccccc2)cc1
Modifier Sign: =
TGI (µM): 58.2
//
Compound: CC(C)CC1=[N+]=C(NC#N)N=C(CCC(=O)Nc2ccccc2[N+](=O)[O-])C1
Modifier Sign: >
TGI (µM): 100
//
Compound: C1=C\CCCCN2C[C@H]3CCCC/C=C\CCCCN4CC[C@@H]([C@H](CCCCCC/1)C4)[C@H](C3)C2
Modifier Sign: =
TGI (µM): 7.74
//
Compound: CC1C(=O)C(C)C(c2ccccc2)N(N=O)C1c1ccccc1 (stereo not given)
Modifier Sign: >
TGI (µM): 946
//
Compound: CO/N=C(\C)c1ccc(Nc2cc(-c3ccccc3)nc3c(O)cccc23)cc1
Modifier Sign: =
TGI (µM): 33.9
//
Compound: Cc1ccc(C(O)c2cnc(C)n2Cc2ccccc2)cc1 (stereo not given)
Modifier Sign: >
TGI (µM): 100
//
Compound: Cn1c(-c2ccc(/C=N\N3CCN(/N=C/c4ccc(-c5c[n+]6ccccc6n5C)cc4)CC3)cc2)c[n+]2ccccc12
Modifier Sign: >
TGI (µM): 100
//
Compound: COc1cc([C@@H]2c3cc4c(cc3[C@@H](NC(=O)c3ccccc3)C3COC(=O)[C@@H]32)OCO4)cc(OC)c1O (stereo not given in full)
Modifier Sign: =
TGI (µM): 37.7
//
Compound: COc1c(N2CCN(CN3C(=O)C(=Nc4ccc(S(=O)(=O)Nc5ncccn5)cc4)c4ccccc43)C(C)C2)c(F)cc2c(=O)c(C(=O)O)cn(C3CC3)c12 (stereo not given)
Modifier Sign: >
TGI (µM): 50
//
Compound: CC(=O)O[C@@H]1CC2C(C)(C)CCCC2(C)C2=C1C(=O)C(C(C)C)=CC2=O (stereo not given in full)
Modifier Sign: =
TGI (µM): 15.9
//
Compound: COc1cc[nH]c1/C=C1\C(=O)Nc2ccc(F)c(I)c21
Modifier Sign: >
TGI (µM): 25
//
Compound: O=NNc1nc(-c2cccnc2)nc2ccccc12
Modifier Sign: >
TGI (µM): 100
//
Compound: CCCCN(Cc1ccc(F)cc1)c1ccc(CO)c(Cl)c1
Modifier Sign: =
TGI (µM): 28.5
